Provide the reported protein stability index of each item.
B1: ZNF263 (parent)
chain: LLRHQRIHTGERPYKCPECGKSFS

# Variants of: B1
# assay_method_text: protein stability index of a GFP-peptide fusion (GPS, HEK-293T) (PSI 1-6); higher = more stable;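 further: lentivirally expressed fusions sorted by FACS into six bins by GFP to DsRed ratio, PSI derived from sequencing read proportions per bin multiplied by bin number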
# experimental_conditions: c terminus: a fixed tail appended

Exam item: Give me measured protein stability index, please, for this variant: S22W
Marked response: 2.09

Exam item: Provide only the value of recorded protein stability index for K15S
Marked response: 2.48

Exam item: State, in one line, measured protein stability index of S22N
Marked response: 1.4

Exam item: Input H8D , output reported protein stability index.
Marked response: 2.53

Exam item: Give me measured protein stability index, please, for this variant: Y14H
Marked response: 2.13

Exam item: Item C16L : provide protein stability index
Marked response: 2.38

Exam item: Please supply the value of reported protein stability index for the item P17N
Marked response: 2.39
